Exercise: state measured composite z-score for each of the compounds provided.
# Test system: Chordin-like protein 2 (CHRDL2)
# ASSAY COMMENT: CHRDL2 small-molecule binders, primary screen, biochemical, small-molecule microarray, 635 nm fluorescence (AID 1126);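 further: printed compound slides probed with Chrdl2 protein at 4 µg/mL for 1 h at 4 C; score merges 667 nm emission intensity with signal to noise over three replicate slides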
# CONDITION SUMMARY: small-molecule microarray binding, fluorescence 635 nm; higher = more signal
One number for each entry.

Consider the reported composite z-score for these compounds:
# COMPOUND, composite z-score
records = [
    ("Cc1ccc(S[C@]2(C(=O)O)CC(=O)N(Cc3ccccc3)[C@@H]2c2ccc(CO)cc2I)cc1", 0.347),
    ("C=CCNC(=O)[C@H]1[C@@H]2C(=O)O[C@@H](c3ccccc3)[C@@H](c3ccccc3)N2[C@@H](c2ccc(O)cc2)[C@]12C(=O)N(C(=O)OCCOC)c1ccc(C#CC3=CCCCC3)cc12", 0.966),
    ("CC(=O)O[C@H]1C2=C(C(=O)[C@@H]3O[C@@H]31)[C@H]1C(C)O[C@@H]2[C@@]23C(=O)[C@@H]4O[C@@H]4[C@@H](O)C2=CO[C@H](C)[C@@H]13 (stereo partly drawn)", 0.249),
    ("COc1ccc(O[C@H]2C=C[C@@H](c3ccccc3)O[C@@H]2COC(=O)CCC(C)=NOCC[C@@H]2C=C[C@H](OC(C)=O)[C@@H](COC(C)=O)O2)cc1", -0.0022),
    ("CCN1C(=O)[C@H]2[C@H]3[C@H](O)[C@H](O)CC(=NOCC=C(C)CCC=C(C)C)[C@H]3CC[C@H]2C1=O", 1.3),
]

Kindly give each listed record's composite z-score.
1. CCc1cc2c(nc1CC)CCN(CCC(C)=NOC[C@@H](O)COCc1ccco1)C2
2. CCN1C(=O)[C@H]2[C@H]3[C@H](O)[C@H](O)CC(=NOCc4ccccc4)[C@@H]3CC[C@H]2C1=O
3. O=C1C2C=CC(C(O)c3ccc([N+](=O)[O-])cc3)N(Nc3ccc([N+](=O)[O-])cc3)C2C(=O)N1c1ccccc1 (stereo not drawn)

[1.57, 0.589, -0.256]

###

# Test system: Human papillomavirus type 1a E7 protein (residues 1-88)
# ASSAY COMMENT: HPV1a E7 small-molecule binders, primary screen, biochemical, small-molecule microarray, residues 1-88, 635 nm (AID 1129)
# CONDITION SUMMARY: small-molecule microarray binding, fluorescence 635 nm; higher = more signal
Please note: class 1 applies when composite z-score is 0.8 or greater, and class 0 applies otherwise.

Example entries begin here.
# MOLECULE, SYSTEM NAME, LABEL CLASS
rows = [
    ("CO[C@@H]1COC(=O)CC=C[C@@H](C)[C@H](OC)COC(=O)[C@H](COCc2ccccc2)NC(=O)CC=C[C@H]1C", "Human papillomavirus type 1a E7 protein (residues 1-88)", "class 0"),
    ("C[C@H]1CC[C@@H](C(=O)O)N[C@@H]1c1ccc(C#CCN(C)C)cc1", "Human papillomavirus type 1a E7 protein (residues 1-88)", "class 0"),
    ("O=C(NN=C1C[C@@H](O)[C@@H](O)[C@@H]2[C@@H]3C(=O)N(c4cccc(Oc5ccccc5)c4)C(=O)[C@@H]3CC[C@H]12)OCc1ccccc1", "Human papillomavirus type 1a E7 protein (residues 1-88)", "class 0"),
    ("CCOC(=O)NN=C1C[C@@H](O)[C@@H](O)[C@@H]2[C@@H]3C(=O)N(C4CCCCC4)C(=O)[C@@H]3CC[C@H]12", "Human papillomavirus type 1a E7 protein (residues 1-88)", "class 1"),
    ("COC(=O)CC=C[C@@H](C)[C@@H](C=NO[C@@H](C)c1cc(-c2c(C)cc(C)cc2C)no1)OC", "Human papillomavirus type 1a E7 protein (residues 1-88)", "class 0"),
]

Given the entry COCCCNC(=O)[C@]1(CCC(=O)OC(C)(C)C)N=C(c2ccc(OCCCO)cc2)O[C@@H]1c1ccccc1N=[N+]=[N-] , answer whether its composite z-score meets or surpasses 0.8.
class 1

Does composite z-score meet or surpass 0.8 for O=C1C[C@@H](O)[C@@H](O)[C@@H]2[C@@H]3C(=O)N(Cc4ccc5c(c4)OCO5)C(=O)[C@@H]3CC[C@@H]12 ?
class 0

Check the entry CN1C(=O)C2C=CC(C(O)C(c3ccccc3)c3ccccc3)N(NC(=O)OC(C)(C)C)C2C1=O (stereo not given) : does composite z-score equal or exceed 0.8?
class 1

Item COC(=O)[C@H](C)NC(=O)[C@@H](C)CO with composite z-score of 0.8 or above?
class 1

Could you tell me if the measured composite z-score of COCCOC(=O)N1C(=O)[C@@]2(c3cc(C#Cc4ccc(OC)cc4)ccc31)[C@H](c1ccc(O)cc1)N1[C@H](c3ccccc3)[C@H](c3ccccc3)OC(=O)[C@H]1[C@@H]2C(N)=O reaches 0.8 or more?
class 1

# check: composite z-score of CC(=O)OC[C@H]1O[C@H](CC=NOC[C@@H](C)[C@H](OCc2ccccc2)C(C)C)C=C[C@@H]1OC(C)=O is greater than or equal to 0.8
class 0

Textbook exercise: given the entry CCOC(=O)CCN1C(=O)[C@H]2[C@H]3[C@H](O)C=CC(=O)[C@@H]3CC[C@H]2C1=O , state whether its composite z-score is greater than or equal to 0.8.
class 0

Check this molecule for composite z-score at or above 0.8: O=C1O[C@@H](c2ccccc2)[C@@H](c2ccccc2)N2[C@@H](c3ccc(OCCO)cc3)[C@]3(C(=O)Nc4ccc(C#CCCO)cc43)[C@@H](C(=O)N3CCCCCCC3)[C@H]12
class 1
